system: human cloned somatostatin receptor 4 (human) (UniProt P31391)
Sequence (P31391 whole entry): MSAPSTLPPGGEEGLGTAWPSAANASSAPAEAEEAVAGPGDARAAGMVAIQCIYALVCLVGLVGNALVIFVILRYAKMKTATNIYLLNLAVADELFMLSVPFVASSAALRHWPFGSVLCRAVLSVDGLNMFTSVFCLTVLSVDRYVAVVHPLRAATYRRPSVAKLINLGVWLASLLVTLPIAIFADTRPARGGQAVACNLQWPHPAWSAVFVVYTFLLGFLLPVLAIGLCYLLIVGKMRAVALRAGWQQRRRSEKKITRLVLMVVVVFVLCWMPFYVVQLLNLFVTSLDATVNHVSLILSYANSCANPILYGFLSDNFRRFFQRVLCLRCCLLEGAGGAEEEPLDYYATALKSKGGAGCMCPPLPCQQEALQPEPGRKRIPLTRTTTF
test protocol: 125I-Tyr11-SRIF-14 displacement
*1 amine or outer side, *2 acyl side, *3 side chain or, on linkers, in order; H or OH if unused. Bridges are numbered along the chain shown (N, C = ends). [ ]: non-standard residue; d: D form. The star is where a group is joined. DOTA = O=C(O)CN1CCN(CC(=O)O)CCN(CC(=O)*)CCN(CC(=O)O)CC1; N(2-mercaptoethyl)Gly = O=C(CN(CCS[*:3])[*:1])[*:2]; Glutaryl = O=C(CCCC(=O)[*:2])[*:1]; Aoc = NCCCCCCCC(=O)O; CPT = camptothecin
% displacement at 1 nM listing for selected binders.
Numbers only; they are read as %.

Recorded % displacement at 1 nM (binder {DOTA}-G[dF]RCF[dW]KTF[N(2-mercaptoethyl)Gly]-NH2 (disulfide 4-10; SMILES C[C@@H](O)[C@@H]1NC(=O)[C@H](CCCCN)NC(=O)[C@@H](Cc2c[nH]c3ccccc23)NC(=O)[C@H](Cc2ccccc2)NC(=O)[C@@H](NC(=O)[C@H](CCCNC(=N)N)NC(=O)[C@@H](Cc2ccccc2)NC(=O)CNC(=O)CN2CCN(CC(=O)O)CCN(CC(=O)O)CCN(CC(=O)O)CC2)CSSCCN(CC(N)=O)C(=O)[C@H](Cc2ccccc2)NC1=O) [SEQ ID NO: 11] ): 0

The value of % displacement at 1 nM measured for the binder {Niraparib-Glutaryl}-[dF]RCF[dW]KTF[N(2-mercaptoethyl)Gly]-NH2 (disulfide 3-9) [SEQ ID NO: 28] turned out to be 0

Lab note: measured % displacement at 1 nM of {CPT-Aoc}-[dF]RCF[dW]KTF[N(2-mercaptoethyl)Gly]-NH2 (disulfide 3-9) [SEQ ID NO: 27] was 0
